Attribution: the supplement of paper PMC12042874

Assay: amyloid nucleation score (Sup35N fusion, yeast selection) (log enrichment); library NNK1; higher = more nucleation; inactive = no reads after selection;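 further: zero at mode of non-aggregating sequences after 7 days selection at 30°C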
Measurement type: amyloid nucleation score
// response body must contain only the number

KFVHNYSLKYIKGVVSCQFL: 0.727
NTVCSAMRW: 4.14

I have this substance here, YPLINTLDMHRLCRIYCVNE , and I need its recorded amyloid nucleation score. -0.514

Same for YRGMGTTPKFT 0.356

Try the substance TRIVLLVVRRGTRKG 0.889

Also need SKTRVLM , thanks. -0.374

Now the substance MSVNSRNMNKYLFWNKL -0.029

----------
Assay: amyloid nucleation score (Sup35N fusion, yeast selection) (log enrichment); library NNK1; higher = more nucleation; inactive = no reads after selection
Measurement type: amyloid nucleation score
Could you respond with only the numeric value?

KSMKGRSLRLRLKRDPRKVA: -0.051

Please report the recorded amyloid nucleation score for LNDPMAGRLNNVRSGCLDDV . -0.059

Please give the result for DRFQNYFCILCFPFYANVCE too. 2.71

Now give it for RGSVIWRRRWTTESWSSYFG too. 1.25

----------
Assay: amyloid nucleation score (Sup35N fusion, yeast selection) (log enrichment); library NNK2; higher = more nucleation; inactive = no reads after selection
Measurement type: amyloid nucleation score

VTIYRGVRFGTFLPCRVRYG: 1.48
DRNPSGNSERPHVMPHPSVD: -0.146
IKCWAPLNCSGGLVGHDQAV: -0.562
AAAYCYRTEEW: 1.6
FYKHMLVTATFSLMYITQDD: -0.404

amyloid nucleation score lookup needed for GDRYSSYSRFEEY , thanks. 0.565

Now the sequence CITSSSLCSDPYLCLSAKNL inactive

FTFDMVSSKSQYMNIDRNVR , same question. -0.996

Again, but for CERLNAPHLHQVRIPKRYNM 0.306

Please give the result for TPCIMWKLGLFFVDCCFGFP too. 4.1

----------
Assay: amyloid nucleation score (Sup35N fusion, yeast selection) (log enrichment); library NNK3; higher = more nucleation; inactive = no reads after selection
Measurement type: amyloid nucleation score

Worked examples, 6 substances total:
RKMMCKWLCNIKGYIIVV: inactive
VISYYIATGGFIDVFYCCKF: 2.15
SLSSRGLYLSKDLMPILNYR: inactive
ISDDICSVKVSGRRACHWIG: inactive
ECYFFHFTR: 1.34
RLVAVVRCYVLCGKIWGKST: -0.484

We next turn to a different substance, shown below.
I'd like to know its amyloid nucleation score. The substance in question is KINRVSLLVLGH inactive

----------
Assay: amyloid nucleation score (Sup35N fusion, yeast selection) (log enrichment); library NNK3; higher = more nucleation; inactive = no reads after selection
Measurement type: amyloid nucleation score

Field: example entries. Status: answers known.
GFLMGSE: inactive
DYCGDCMILFCTLVGYDRCT: 2.06
RSCLCEWWDVGSSVSASTLL: inactive
SCSNCVHISRTAILTGPRSA: inactive
SFLPNKYLL: inactive

// returns reported amyloid nucleation score for input SDKRQLRDR inactive

Next up: SNVTRMVRFFWVEGPTEYWY inactive

Check RMNQIRLPGRCTY too. inactive

And the next one, IARINGMLASSGVASTM ? inactive

What do we get for RIRKRQCWSFVLLLYCGCVT ? inactive

Moving on to HILHLRLDYFLGA 0.401

Would you mind doing HLFLKHMLLTYCKPCGW as well? inactive

Would you kindly repeat that for RKLLCWTRDGRIWMRVEGTA ? inactive

Entry NMYLSMSLIFNTNYLPGMIS please inactive

Can you check FYFGTG next? inactive

// repeat for VRQHCQMLMILFLYPLACGS and report inactive

Another substance: SVESQGLWGCCILSKR 2.7

# iterate: TVLYFA inactive

----------
Assay: amyloid nucleation score (Sup35N fusion, yeast selection) (log enrichment); library NNK3; higher = more nucleation; inactive = no reads after selection
Measurement type: amyloid nucleation score

LVRRHSFSGYRRDT: inactive
DRIVACKLKTGYTQGMVPLL: inactive
SYNFVNQYVWKEDRNTKVAI: inactive
MSPFADKRHLADILCVHGS: inactive
KFWLKVHFYEHKWSWVMFEC: inactive

// next entry
# query: amyloid nucleation score of entry SMFTAIASTTFNLQSLYLM inactive

----------
Assay: amyloid nucleation score (Sup35N fusion, yeast selection) (log enrichment); library NNK1; higher = more nucleation; inactive = no reads after selection
amyloid nucleation score below -0.1 gives f; amyloid nucleation score at or above it gives t.

// below: answered substances
KYWVGWAVSFCVWYLTRLWE: t
VIMCYR: f
YIVRQECSRIQYLTDM: t
KLYWTYLTPGTNSGLQSPDS: f
VVARYYIQLFDRRDRN: t
KCGGKRCWLSFCLDAD: t

Threshold query (amyloid nucleation score >= -0.1) on PVKGGVMGF f

Another substance to look at: WSKDNTIVEISYGTSGLVQL t

----------
Assay: amyloid nucleation score (Sup35N fusion, yeast selection) (log enrichment); library NNK3; higher = more nucleation; inactive = no reads after selection
Measurement type: amyloid nucleation score

IRALRKRDEDGSLLTGTLFC: -0.385
SCGSDKSLFDDCIKPRSRHC: inactive
IVECFYTL: inactive
KAERVVRA: inactive
LKNPARYYYVVQIFMVLSTA: inactive

Dear colleague, I am looking for the recorded amyloid nucleation score of the following substance: SGLWHRILCSGRPTGYTQWV inactive

Try LYHTLKTHVKIFPCHSTDAP next. inactive

Another: YQIDQSLCNWCYLGGSWFIA 2.39

// same read-out, input: YLVWVFPEWPC 1.39

Please give the result for QLFVRVIWDMP too. 0.186

Now the substance AIYLSFRGNA 1.65

Proceed to WFVQLSRMWFYANGNCPV inactive

Again, but for FLIYAQALLF inactive

// repeat for FKQMDTLTHISFSKAIMPSF and report inactive

Consider next the substance SCIRVRRNATVAVVLDDMLK in the same way. inactive

Further, for SNVPYKDLQTLWCSHPVSVV ? inactive

What do you get for GTFVFTYMWFNIYRQNDFRN ? inactive

----------
Assay: amyloid nucleation score (Sup35N fusion, yeast selection) (log enrichment); library NNK3; higher = more nucleation; inactive = no reads after selection
Measurement type: amyloid nucleation score

Please review the following examples before continuing.
CYGNSMIGVFRICFHSLVYV: inactive
CANNYGGMLRECQVSGYSCM: inactive
GYLLVVW: inactive
TLYVIGLPFDLALMGI: inactive
ARAYRDQGWPEKEIAQHK: inactive
TFKPDQYRFVHEYSTMRVLM: inactive
ACFLVFGIYQEVMHDCIGRS: inactive
LAVGRTWMLVANWDSMGQIV: inactive

State the recorded amyloid nucleation score for this entry: PCLFTSSVSIFYNDALLVLS inactive

Would you kindly repeat that for FRTTLKTR ? inactive

----------
# amyloid nucleation score annotations
Assay: amyloid nucleation score (Sup35N fusion, yeast selection) (log enrichment); library NNK1; higher = more nucleation; inactive = no reads after selection
Just the number, please, no unit attached.

Answered cases to consult:
GDLGCVYSLFRSLFSSFTRS: 0.111
RIKYAWFCVFGTWNRIRVRI: 1.1
VKLGDNNTRQLTYSGS: 1.71
YNTSGNTRS: -0.269
CNFLLATWRRLKYTSQYLKS: -0.073

Item LTTYFHFMSMTEWAWRRRSK has what recorded amyloid nucleation score? 0.538

Now try LVVLSTVDA . -0.279

Same question for LTFCCIMYSIYHSQPDFCGL please. 2.37

Another substance to check: GMTCSQGSEWMLERGNRTEV -0.294

Please give the result for FLMLRAYESMARFYDVLWIG too. 0.088

Try the substance KCSFNLTLIVF 1.77

Now try PQGSVGLEFKNYCVRAACGF . 0.078

Consider next the substance IIRKPGLTRTCHTVLTAASE in the same way. 0.511

----------
Assay: amyloid nucleation score (Sup35N fusion, yeast selection) (log enrichment); library NNK2; higher = more nucleation; inactive = no reads after selection
amyloid nucleation score values, listed per item
Please reply with the number alone, leaving off any unit.

Reference set, count: 6
GHLRYTIDTGTTSGSSDLMS: -0.842
IRPINGSWGVSTNCKVYDYV: -0.011
SEVCNCVGLGSGCDVYGA: 3.17
RVDCPYSGNVLTRVGNRCWA: 0.729
VHRWSDTYTTTYM: -0.535
CPVSAASLSNLFDVAHNGVR: 5.35

Given the substance GAELPKYESRLPFLSAGLRQ , what is its reported amyloid nucleation score? -0.048

Now consider RWYYTRTF and answer again. -0.504

Record: GYFAYRVICNVVGDTGFSLA -0.06

Field entry: WNVMHI 0.358

Then this substance: SYVEHTMILDMRPTCHTLPH 5.08

MLCCCTLQVGFAYIFLFL , same question. 3.28

Another: AWNLFLFQSRL 4.7

Another: LKATQLYGFYMTEKCVDSSW -0.549

Repeat for the following substance: YRVVKPCWLHFGDLIVWTWC 0.351
